# reported Growth in % of control (mean ± SEM); entries follow
Tested on: chloroquine resistant P. falciparum DD2 strain
Experiment: In vitro growth of P. falciparum DD2, 3H-hypoxanthine uptake (Example 15)
Format: cell-based, Plasmodium falciparum
Details: title: percentage inhibition of 3H-hypoxanthine uptake; 10 μg/ml
Please respond with the number in % and leave the unit unwritten.

Check out these entries, answers already filled in.
{"compound": "CCOc1ccc(/C=C/C(=O)c2ccccc2O)c(OCC)c1 [2,4-Diethoxy-2′-hydroxychalcone]", "readoutType": "Growth in % of control (mean ± SEM)", "unitText": "%", "number": 55.3}
{"compound": "C=CC(C)(C)c1cc(/C=C/C(=O)c2ccc(O)cc2)c(OC)cc1O [Licochalcone A, licochalcone A]", "readoutType": "Growth in % of control (mean ± SEM)", "unitText": "%", "number": 99.0}
{"compound": "CCOc1ccc(/C=C/C(=O)c2ccc(O)cc2)c(OCC)c1 [2,4-Diethoxy-4′-hydroxychalcone]", "readoutType": "Growth in % of control (mean ± SEM)", "unitText": "%", "number": 86.8}
{"compound": "C=CCOc1ccc(C(=O)/C=C/c2cc(OC)ccc2OC)cc1 [2,5-Dimethoxy-4′-allyloxychalcone, 2,5-dimethoxy-4′-prop-2enyloxychalcone]", "readoutType": "Growth in % of control (mean ± SEM)", "unitText": "%", "number": 74.4}
{"compound": "COCOc1ccc(C(=O)/C=C/c2ccc(OC)cc2OC)cc1 [2,4-Dimethoxy-4′-methoxymethoxychalcone, 2,4-dimethoxy-4′-methoxymethoxychalcone]", "readoutType": "Growth in % of control (mean ± SEM)", "unitText": "%", "number": 40.8}

Please find the next compound below.
The compound listed as C=CCOc1ccc(C(=O)/C=C/c2cc(OC)cc(OC)c2)cc1 [3,5-Dimethoxy-4′-allylchalcone, 3,5-dimethoxy-4′-prop-2-enyloxychalcone] shows Growth in % of control (mean ± SEM) equal to 79.1

---

System: L. major promastigotes
Test: L. major promastigotes from 4-days cultures, 3H-thymidine uptake (Examples 5, 14)
Assay type: cell-based, Leishmania major
Settings: Leishmania major; Table 14.1; 5 μg/ml; read-out: percentage inhibition of promastigotes (upper figure)
# reported inhibition at 5 µg/mL; entries follow
Please respond with the number in % and leave the unit unwritten.

{"compound": "C=CCOc1ccc(C(=O)/C=C/c2ccc(OC)c(OC)c2)cc1 [drawing 84]", "inhibition at 5 µg/mL / %": 70.4}
{"compound": "COc1ccc(/C=C/C(=O)c2ccccc2O)c(OC)c1", "inhibition at 5 µg/mL / %": 89.4}
{"compound": "O=C(c1ccccc1)C1OC1c1ccccc1 (stereo not drawn)", "inhibition at 5 µg/mL / %": 73.2}

Please find the next compound below.
The compound listed as C=CC(C)(C)c1cc(/C=C/C(=O)c2ccc(O)cc2)c(OC)cc1O [Licochalcone A, licochalcone A] shows inhibition at 5 µg/mL equal to 64

---

Test system: chloroquine resistant P. falciparum DD2 strain
Experiment: In vitro growth of P. falciparum DD2, 3H-hypoxanthine uptake (Example 15)
Type: cell-based, Plasmodium falciparum
Settings: title: percentage inhibition of 3H-hypoxanthine uptake; 1 μg/ml
readoutType: Growth in % of control (mean ± SEM) (%)
Please respond with the number in % and leave the unit unwritten.

Check out these entries, answers already filled in.
{"molecule": "COc1ccc(/C=C/C(=O)c2ccc(O)cc2)c(OC)c1 [2,4-Dimethoxy-4′-hydroxychalcone, 2,4-dimethoxy-4′-hydroxychalcone]", "Growth in % of control (mean ± SEM), %": 21.8}
{"molecule": "COCOc1ccc(C(=O)/C=C/c2ccc(OC)cc2OC)cc1 [2,4-Dimethoxy-4′-methoxymethoxychalcone, 2,4-dimethoxy-4′-methoxymethoxychalcone]", "Growth in % of control (mean ± SEM), %": 0}

The molecule listed as COc1cccc(/C=C/C(=O)c2ccc(O)cc2)c1OC [2,3-Dimethoxy-4′-hydroxychalcone] shows Growth in % of control (mean ± SEM) equal to 54.4

The molecule listed as CCOc1ccc(/C=C/C(=O)c2ccc(O)cc2)c(OCC)c1 [2,4-Diethoxy-4′-hydroxychalcone] shows Growth in % of control (mean ± SEM) equal to 9

The molecule listed as CCOc1ccc(/C=C/C(=O)c2ccccc2O)c(OCC)c1 [2,4-Diethoxy-2′-hydroxychalcone] shows Growth in % of control (mean ± SEM) equal to 20.8

The molecule listed as C=CC(C)(C)c1cc(/C=C/C(=O)c2ccc(O)cc2)c(OC)cc1O [Licochalcone A, licochalcone A] shows Growth in % of control (mean ± SEM) equal to 66.0

The molecule listed as C=CCOc1ccc(C(=O)/C=C/c2ccc(OC)c(OC)c2)cc1 [3,4-Dimethoxy-4′-allyloxychalcone, 3,4-dimethoxy-4′-prop-2-enyloxychalcone] shows Growth in % of control (mean ± SEM) equal to 9.4

The molecule listed as C=CCOc1ccc(C(=O)/C=C/c2c(OC)cccc2OC)cc1 [2,6-Dimethoxy-4′-allyloxychalcone, 2,6-dimethoxy-4′-prop-2-enyloxychalcone] shows Growth in % of control (mean ± SEM) equal to 24.3

The molecule listed as C=CCOc1ccc(C(=O)/C=C/c2ccc(OC)cc2OC)cc1 [2,4-Dimethoxy-4′-allyloxychalcone, 2,4-dimethoxy-4′-prop-2-enyloxychalcone] shows Growth in % of control (mean ± SEM) equal to 23.6

The molecule listed as COc1ccc(/C=C/C(=O)c2ccc(O)cc2)cc1OC [3,4-Dimethoxy-4′-hydroxychalcone, 3,4-dimethoxy-4′-hydroxychalcone] shows Growth in % of control (mean ± SEM) equal to 7.1

---

System: L. major promastigotes
Test: L. major promastigotes from 4-days cultures, 3H-thymidine uptake (Examples 5, 14)
Assay type: cell-based, Leishmania major
Settings: Leishmania major; Table 14.1; 5 μg/ml; read-out: percentage inhibition of promastigotes (upper figure)
# reported inhibition at 5 µg/mL; entries follow
Please respond with the number in % and leave the unit unwritten.

{"compound": "COc1ccc(/C=C/C(=O)c2ccc(OCOC(=O)C(C)(C)C)cc2)c(OC)c1", "inhibition at 5 µg/mL, %": 7.9}
{"compound": "COc1ccc(/C=C/C(=O)c2ccc(OC)cc2)cc1", "inhibition at 5 µg/mL, %": 35.6}

The compound listed as COc1cccc(OC)c1/C=C/C(=O)c1ccc(O)cc1 shows inhibition at 5 µg/mL equal to 77.5

The compound listed as O=C(/C=C/c1ccc(O)cc1)c1ccccc1 [4-Hydroxychalcone, 4-hydroxychalcone] shows inhibition at 5 µg/mL equal to 80.1

The compound listed as C=CCOc1ccc(C(=O)/C=C/c2cc(OC)ccc2OC)cc1 [drawing 78] shows inhibition at 5 µg/mL equal to 63

The compound listed as C=CCOc1ccc(C(=O)/C=C/c2cc(OC)cc(OC)c2)cc1 [drawing 85] shows inhibition at 5 µg/mL equal to 82.8

---

Tested on: L. major promastigotes
Assay: L. major promastigotes from 4-days cultures, 3H-thymidine uptake (Examples 5, 14)
Assay type: cell-based, Leishmania major
Details: Leishmania major; Table 14.1; 5 μg/ml; read-out: percentage inhibition of promastigotes (upper figure)
Binary call on inhibition at 5 µg/mL: met from 50% upward, not met beneath that.

Check out these entries, answers already filled in.
{"molecule": "O=C(/C=C/c1ccc(O)cc1)c1ccc(O)cc1 [drawing 63]", "system": "L. major promastigotes", "qualitativeLabel": "not met"}
{"molecule": "COc1ccc(CCC(=O)c2ccc(O)cc2)c(OC)c1 [drawing 92]", "system": "L. major promastigotes", "qualitativeLabel": "not met"}
{"molecule": "C=CCOc1ccc(C(=O)/C=C/c2ccc(OC)cc2OC)cc1 [drawing 82]", "system": "L. major promastigotes", "qualitativeLabel": "met"}
{"molecule": "O=C(/C=C/c1ccc(O)c(O)c1)c1ccc(O)cc1O", "system": "L. major promastigotes", "qualitativeLabel": "not met"}
{"molecule": "COc1ccc(C(=O)/C=C/c2ccccc2)cc1 [drawing 66]", "system": "L. major promastigotes", "qualitativeLabel": "met"}
{"molecule": "C=CCOc1ccc(C(=O)/C=C/c2ccccc2OC)cc1", "system": "L. major promastigotes", "qualitativeLabel": "met"}

Data request: // inclusive: inhibition at 5 µg/mL at least 50%? input: O=C(/C=C/c1ccccc1)c1ccc(F)cc1
Data returned: met

Data request: // inclusive: inhibition at 5 µg/mL at least 50%? input: COc1ccc(CCC(=O)c2ccc[nH]2)c(OC)c1
Data returned: not met

---

# reported inhibition at 5 µg/mL; entries follow
Tested on: L. major promastigotes
Experiment: L. major promastigotes from 4-days cultures, 3H-thymidine uptake (Examples 5, 14)
Format: cell-based, Leishmania major
Conditions: Leishmania major; Table 14.1; 5 μg/ml; read-out: percentage inhibition of promastigotes (upper figure)

Check out these entries, answers already filled in.
{"compound": "C=CCOc1ccc(C(=O)/C=C/c2cc(OC)c(OC)c(OC)c2)cc1", "readoutType": "inhibition at 5 µg/mL", "result": "44 to 60%"}
{"compound": "COc1ccc(/C=C/C(=O)c2ccccc2OCC=C(C)C)c(OC)c1", "readoutType": "inhibition at 5 µg/mL", "result": "49%"}
{"compound": "COCOc1ccc(C(=O)/C=C/c2ccc(OC)cc2OC)cc1 [drawing 90]", "readoutType": "inhibition at 5 µg/mL", "result": "50.2%"}

The compound listed as C=CCOc1ccc(C(=O)/C=C/c2c(OC)cc(OC)cc2OC)cc1 shows inhibition at 5 µg/mL equal to 14 to 50%

The compound listed as C=CCOc1ccc(C(=O)/C=C/c2c(OC)cccc2OC)cc1 [drawing 83] shows inhibition at 5 µg/mL equal to 63.7%

The compound listed as COc1cc(/C=C/C(=O)c2ccc(O)cc2O)ccc1O [drawing 74] shows inhibition at 5 µg/mL equal to 56.7%

The compound listed as O=C(/C=C/c1ccccc1)c1ccc(O)cc1 [4′-Hydroxychalcone, 4′-hydroxychalcone] shows inhibition at 5 µg/mL equal to 73.4%

The compound listed as COc1ccc(/C=C/C(=O)c2ccccc2)c(OC)c1 [drawing 67] shows inhibition at 5 µg/mL equal to 77.8%

The compound listed as COCCOCOc1ccc(C(=O)/C=C/c2ccc(OCC=C(C)C)cc2OC)cc1 shows inhibition at 5 µg/mL equal to 33.1%

The compound listed as COc1ccc(OC)c(/C=C/C(=O)c2ccc(O)cc2)c1 [drawing 71] shows inhibition at 5 µg/mL equal to 96.2%

The compound listed as C=CCOc1ccc(C(=O)/C=C/c2cc(OC)c(OC)cc2OC)cc1 shows inhibition at 5 µg/mL equal to 23.2%

The compound listed as O=C(/C=C/c1ccccc1)c1ccccc1 [drawing 60] shows inhibition at 5 µg/mL equal to 91.9%
